Values were extracted from patent US8685977B2.

# Experimental system: Nav1.7 (or SCN9A) channel (Homo sapiens, UniProt Q15858)
# Construct: expressed in transfected cells
# Sequence (Q15858 whole entry): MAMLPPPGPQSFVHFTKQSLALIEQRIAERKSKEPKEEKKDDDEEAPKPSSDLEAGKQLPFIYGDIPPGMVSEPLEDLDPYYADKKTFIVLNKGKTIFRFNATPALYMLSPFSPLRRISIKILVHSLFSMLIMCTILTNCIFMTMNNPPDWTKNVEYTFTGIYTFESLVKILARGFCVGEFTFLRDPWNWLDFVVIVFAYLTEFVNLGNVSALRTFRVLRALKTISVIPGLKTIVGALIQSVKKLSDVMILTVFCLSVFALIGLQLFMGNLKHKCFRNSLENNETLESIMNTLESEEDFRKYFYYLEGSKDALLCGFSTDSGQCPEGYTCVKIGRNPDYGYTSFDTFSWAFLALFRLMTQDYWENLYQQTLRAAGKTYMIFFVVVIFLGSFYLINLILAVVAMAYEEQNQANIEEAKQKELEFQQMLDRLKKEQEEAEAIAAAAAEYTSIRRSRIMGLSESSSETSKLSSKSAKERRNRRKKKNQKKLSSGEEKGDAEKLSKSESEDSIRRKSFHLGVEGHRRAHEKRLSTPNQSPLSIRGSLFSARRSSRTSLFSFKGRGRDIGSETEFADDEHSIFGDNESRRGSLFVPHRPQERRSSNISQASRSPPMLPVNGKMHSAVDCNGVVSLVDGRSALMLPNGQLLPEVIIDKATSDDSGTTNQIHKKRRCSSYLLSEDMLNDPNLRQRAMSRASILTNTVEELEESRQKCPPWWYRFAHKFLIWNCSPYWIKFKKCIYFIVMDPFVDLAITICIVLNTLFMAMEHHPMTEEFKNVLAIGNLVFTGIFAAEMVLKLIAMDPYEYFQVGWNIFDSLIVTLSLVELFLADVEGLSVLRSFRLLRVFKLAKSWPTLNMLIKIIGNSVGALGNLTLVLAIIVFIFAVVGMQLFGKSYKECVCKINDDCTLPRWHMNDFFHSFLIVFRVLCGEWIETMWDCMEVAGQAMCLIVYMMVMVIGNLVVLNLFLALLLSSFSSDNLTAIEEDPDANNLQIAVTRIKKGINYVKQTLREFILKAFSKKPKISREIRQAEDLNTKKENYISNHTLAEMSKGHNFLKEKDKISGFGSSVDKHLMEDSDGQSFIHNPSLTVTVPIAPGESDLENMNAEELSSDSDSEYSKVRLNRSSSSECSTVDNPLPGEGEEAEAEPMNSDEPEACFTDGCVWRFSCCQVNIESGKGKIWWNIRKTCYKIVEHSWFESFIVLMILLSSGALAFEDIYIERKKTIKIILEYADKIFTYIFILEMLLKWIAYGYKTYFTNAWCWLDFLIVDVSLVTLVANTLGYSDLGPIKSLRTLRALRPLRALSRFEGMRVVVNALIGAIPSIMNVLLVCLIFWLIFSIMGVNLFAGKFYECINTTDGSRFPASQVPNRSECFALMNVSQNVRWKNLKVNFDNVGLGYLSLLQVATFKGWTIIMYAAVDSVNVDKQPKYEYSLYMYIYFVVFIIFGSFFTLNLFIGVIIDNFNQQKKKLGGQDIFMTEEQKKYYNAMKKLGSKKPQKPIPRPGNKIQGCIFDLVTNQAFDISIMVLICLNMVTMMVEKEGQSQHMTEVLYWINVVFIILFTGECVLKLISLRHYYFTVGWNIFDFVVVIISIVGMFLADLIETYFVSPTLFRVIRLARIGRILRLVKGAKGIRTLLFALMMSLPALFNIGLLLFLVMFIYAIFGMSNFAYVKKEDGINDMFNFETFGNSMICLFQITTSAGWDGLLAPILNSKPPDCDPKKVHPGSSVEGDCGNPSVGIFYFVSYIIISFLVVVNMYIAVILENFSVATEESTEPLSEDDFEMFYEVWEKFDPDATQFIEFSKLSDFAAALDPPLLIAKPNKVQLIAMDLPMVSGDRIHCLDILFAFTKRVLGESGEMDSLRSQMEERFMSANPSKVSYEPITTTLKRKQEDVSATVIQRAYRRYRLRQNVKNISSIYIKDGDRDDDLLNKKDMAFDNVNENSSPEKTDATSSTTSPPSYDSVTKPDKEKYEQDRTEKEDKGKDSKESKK
# Test name: Nav1.7 PatchXpress 7000 automated electrophysiology assay (HEK cells stably expressing hSCN9A)
# Assay type: cell-based
# Run parameters: voltage-clamped at V1/2 of inactivation, read-out: Nav1.7 EIC50
# Method: The ability of the compounds of formula (I) to block the Nav1.7 (or SCN9A) channel was measured using the assays described below. […] HEK cells stably transfected with hSCN9A were viewed under Hoffman contrast optics and placed in front of an array of flow pipes emitting either control or compound-containing extracellular solutions. […] The voltage-dependence of inactivation was determined by applying a series of depolarizing prepulses (8 sec long in 10 mV increments) from a negative holding potential. […]
Assay metric: IC50 (µM)

# Substance smiles, Assay metric, Result value
data = [
    ("CCS(=O)(=O)NC(=O)c1ccc(Oc2ccc(Cl)cc2)cc1", "IC50", 3.4),
]

a. Cc1cc(C(=O)NS(C)(=O)=O)ccc1Oc1cccc(Cl)c1
b. Cc1cc(Oc2ccc(C(=O)NS(C)(=O)=O)cc2)ccc1F
[Q] Select the item with the higher value of IC50 from the options a and b listed. Indicate which entry you chose by stating its label.
[A] b

---

# Experimental system: Nav1.7 (or SCN9A) channel (Homo sapiens, UniProt Q15858)
# Construct: expressed in transfected cells
# Test name: Nav1.7 PatchXpress 7000 automated electrophysiology assay (HEK cells stably expressing hSCN9A)
# Type: cell-based
# Run parameters: voltage-clamped at V1/2 of inactivation, read-out: Nav1.7 EIC50
pIC50: −log10 of the molar value.
Assay metric: pIC50

The molecule listed as CS(=O)(=O)NC(=O)c1ccc(Oc2ccc(-n3ccnc3)cc2)cc1 [Example 311] has a reported pIC50 of < 5.52

Summary for this molecule, CCS(=O)(=O)NC(=O)c1ccc(Oc2ccc(C)cc2)cc1 [Example 308] : pIC50 is < 5.00

pIC50 recorded for this molecule, Cn1ccc(-c2ccccc2Oc2ccc(C(=O)NS(C)(=O)=O)cc2)n1 [Example 197] , is < 5.00

---

# Experimental system: Nav1.7 (or SCN9A) channel (Homo sapiens)
# Construct: expressed in transfected cells
# Test name: Nav1.7 PatchXpress 7000 automated electrophysiology assay (HEK cells stably expressing hSCN9A)
# Assay type: cell-based
# Run parameters: voltage-clamped at V1/2 of inactivation, read-out: Nav1.7 EIC50
Assay metric: IC50 (nM)

Recorded IC50, per entry:
# Substance smiles, IC50 / nM
rows = [
    ("CS(=O)(=O)NC(=O)c1cc(Cl)c(Oc2ccc(Cl)cc2OC(F)F)cc1F", 430),
    ("CS(=O)(=O)NC(=O)c1ccc(Oc2ccc(Cl)c(C(F)(F)F)c2)cc1Cl", 5800),
    ("COc1cccc(Oc2cc(F)c(C(=O)NS(C)(=O)=O)cc2Cl)c1", 1200),
    ("CCc1cc(F)ccc1Oc1ccc(C(=O)NS(C)(=O)=O)cc1F", 5400),
]

P. COc1ccc(Oc2ccc(C(=O)NS(C)(=O)=O)cc2Cl)cc1
Q. CCOc1cccc(Oc2cc(F)c(C(=O)NS(C)(=O)=O)cc2Cl)c1
R. CS(=O)(=O)NC(=O)c1cc(Cl)c(Oc2ccc(Cl)cc2OC(F)(F)F)cc1F
S. CS(=O)(=O)NC(=O)c1cc(F)c(Oc2ccc(F)cc2)cc1F
T. CS(=O)(=O)NC(=O)c1ccc(Oc2cccc(OC(F)(F)F)c2)cc1
[Q] Order field: IC50 | Direction: descending (largest first) Returns: the labels listed in the requested order.
[A] S, P, T, Q, R
